system: CAKI-1 renal; assay: NCI tumour cell line growth inhibition, 48 h
Overview of recorded GI50 for various compounds

O=C(Nc1nc(-c2ccc(Cl)cc2)cs1)c1cc(O)c(O)c(O)c1 115 µM
COc1ccc2c(c1)C(=Nc1ccc(F)c(Cl)c1)c1c-2c(Nc2ccc(F)c(Cl)c2)nc2ccccc12 > 65.8 µM
CCCCC(=O)N(c1ccc(Nc2c3ccccc3nc3cc([N+](=O)[O-])ccc23)cc1)S(C)(=O)=O 7.03 µM
CN1CCC2(CC1)N=C(SCC(=O)Nc1cnc3ccccc3c1)C(c1ccc(Br)cc1)=N2 1.64 µM
COc1cccc2c1C(=O)c1c(O)c3c(c(O)c1C2=O)C[C@@](O)(/C(CO)=N/NC(=O)CCCCCN1C(=O)C=CC1=O)C[C@@H]3O[C@H]1C[C@H](N)[C@H](O)[C@H](C)O1 3.6 µM
COc1cccc(Nc2ncnc3cc(NC(=O)CCl)ccc23)c1 1.06 µM
Cc1sc(C(=O)c2cncnc2N[C@@H]2C[C@H](COS(N)(=O)=O)[C@@H](O)C2)cc1[C@@H]1NCCc2ccc(Cl)cc21 1.63 µM

Now take the following compound into account.
[ask] Given the compound COC(=O)c1c[nH]c2cc(OC(C)C)c(OC(C)C)cc2c1=O , write its reported GI50.
[reply] > 100 µM

---

test system: M14 melanoma; assay: NCI tumour cell line growth inhibition, 48 h
assayEndpoint: TGI (µM)
Field format: number, assumed µM, no unit text.

smilesCode	studyTarget	unitAbbrev	TGI
COC(=O)[C@H](Cc1cn(C)cn1)NC(=O)[C@H](CC(=O)OCc1ccccc1)NC(=O)Nc1cc(C(F)(F)F)cc(C(F)(F)F)c1	M14 melanoma	µM	11.3

[ask] Given the molecule CN1CCN(CCCNC(=O)c2c3c(n4ccccc24)C(=O)c2ncccc2C3=O)CC1 , write its reported TGI.
[reply] 2.6

---

Overview of recorded TGI for various compounds
system: UACC-62 melanoma; experiment: NCI tumour cell line growth inhibition, 48 h

compound	observedValue
Cc1c(C(=O)c2ccccc2)[n+](=O)c2cc(Cl)c(Cl)cc2n1[O-]	25.1 µM
COc1ccc2c(c1)CCc1c-2[nH]c2cc3c(cc2c1=O)OCO3	> 100 µM
CC1(C)Cc2c(sc3[nH]c(=S)[nH]c(=S)c23)CS1	67.4 µM
N=c1oc2ccccc2cc1C(=O)Nc1cccc2ccccc12	> 100 µM
N#Cc1c2ccccc2c(Cc2ccc3c(c2)OCCOCCOCCOCCOCCO3)c2ccccc12	19.8 µM
c1ccc(C2=NOC3C4CCC(C4)C23)cc1 (stereo not drawn)	> 100 µM
C[P+]1(Cc2ccccc2)CCCC1	> 100 µM
Cn1ncc(C#N)c1-c1ccc2c(c1)CN([C@H](CN)Cc1cccc(F)c1)C2=O	22.6 µM
COc1cccc2c1C(=O)c1c(O)c3c(c(O)c1C2=O)C[C@@](O)(/C(CO)=N/NC(=O)CCCCCN1C(=O)C=CC1=O)C[C@@H]3O[C@H]1C[C@H](N)[C@H](O)[C@H](C)O1	3 µM
Cn1c(=O)c2ccccc2[n+]2c(-c3cccc([N+](=O)[O-])c3)csc12	> 100 µM

[ask] Given the compound C/C(=C\COP(=O)(O)OP(=O)(O)O)CCCCCCOCc1ccccc1 , write its reported TGI.
[reply] > 100 µM

[ask] Given the compound O=C(Sc1c(-c2ccccc2)c(=O)n(-c2ccccc2)c(=S)n1-c1ccccc1)c1ccccc1 , write its reported TGI.
[reply] > 100 µM

[ask] Given the compound Cc1ccc(Nc2cccc3c2C(=O)c2cccc(Nc4ccc(C)cc4S(=O)(=O)O)c2C3=O)c(S(=O)(=O)O)c1 , write its reported TGI.
[reply] > 100 µM

[ask] Given the compound Cc1cc(O)c2c(c1)C(=O)c1c(c(O)cc(O)c1-c1c(O)cc(O)c3c1C(=O)c1cc(C)cc(O)c1C3=O)C2=O , write its reported TGI.
[reply] 25.4 µM

[ask] Given the compound CCO/C(O)=C(/C(=N)N1CCOCC1)C(=O)NC(C)C , write its reported TGI.
[reply] > 100 µM

---

system: K-562 leukemia; assay: NCI tumour cell line growth inhibition, 48 h
Overview of recorded TGI for various compounds

Solved entries:
compound	TGI
COc1ccccc1-n1nnc2c(N)nc(N)nc21	> 100 µM
CC1(C)C(N2CCOCC2)CS1(=O)=O (stereo not given)	> 10 µM
c1ccc(C2=NOC3C4CCC(C4)C23)cc1 (stereo not given)	> 100 µM
COc1ccc(Cc2cc(Cc3ccc(OC)cc3)cc(Cc3ccc(OC)cc3)c2)cc1	> 100 µM

[ask] Given the compound CC1(C)Cc2c(sc3[nH]c(=S)[nH]c(=S)c23)CS1 , write its reported TGI.
[reply] > 100 µM

[ask] Given the compound O=C1c2ccccc2C(=O)N1CCCOCc1c[nH]c(=O)[nH]c1=O , write its reported TGI.
[reply] > 100 µM

[ask] Given the compound COC(=O)C1(C(=O)OC)N=C(C)OC1c1ccccc1O (stereo not given) , write its reported TGI.
[reply] > 100 µM

[ask] Given the compound C=C1c2nc3ccccc3n2C=C(c2cccc(Cl)c2)N1Cc1ccc(OC)cc1 , write its reported TGI.
[reply] 5.25 µM

[ask] Given the compound CC(=O)OC1CCC2OOC1O2 (stereo not given) , write its reported TGI.
[reply] > 100 µM

---

test system: COLO 205 colon; assay: NCI tumour cell line growth inhibition, 48 h; in the data active = GI50 below about 0.43 µM; inactive = the rest
Outcome field: choose from YES for active, NO for inactive

A selection of reference data follows.
CCOc1cc(-c2nncn2C)ccc1Nc1ncc2cc(C)nc(NCC(C)(C)C)c2n1 NO
Cc1sc(C(=O)c2cncnc2N[C@@H]2C[C@H](COS(N)(=O)=O)[C@@H](O)C2)cc1[C@@H]1NCCc2ccc(Cl)cc21 YES
COC(=O)[C@H](Cc1cn(C)cn1)NC(=O)[C@H](CC(=O)OCc1ccccc1)NC(=O)Nc1cc(C(F)(F)F)cc(C(F)(F)F)c1 NO
COC(=O)[C@]12CC[C@@H](C)[C@H](C)[C@@H]1C1=CC[C@@H]3[C@@]4(C)C(C=O)=C[C@@](C)(CO)[C@@H]4[C@H](O)C[C@@]3(C)[C@]1(C)CC2 NO

[ask] Recorded test outcome, item C=C1C(=O)O[C@H]2[C@H]1CC/C(COC(=O)c1cccnc1N)=C\CC[C@@]1(C)O[C@@H]21
[reply] NO

[ask] Recorded test outcome, item c1ccc(-c2[nH]ncc2-c2ccnc(-c3ccc(OCCN4CCOCC4)cc3)c2)nc1
[reply] NO

[ask] Recorded test outcome, item Nc1ccccc1C#C/C=C\C#Cc1ccccc1C#CCO
[reply] NO

[ask] Recorded test outcome, item COc1cc(C(=O)/C=C/c2cc(-c3ccc4c(c3)OCO4)n[nH]2)cc(OC)c1OC
[reply] NO

---

Overview of recorded TGI for various compounds
system: BT-549 breast; test: NCI tumour cell line growth inhibition, 48 h
*1 amine or outer side, *2 acyl side, *3 side chain or, on linkers, in order; H or OH if unused. Where a SMILES comes first, the peptide text is derived from it. Bridges are numbered along the chain shown (N, C = ends). [ ]: non-standard residue; d: D form. X35 = CC[C@H](C)[C@@H](N[*:1])[C@@H](O)CC(=O)O[C@H](C(=O)[C@H](C)C(=O)[*:2])C(C)C; NMeY = CN[C@@H](Cc1ccc(O)cc1)C(=O)O
Field format: number, assumed µM, no unit text.

Solved entries:
compound	studyTarget	unitAbbrev	observedValue
Clc1sc(Cl)c2c1[C@H](Cl)C[C@@H]2Cl	BT-549 breast	µM	62.5
CC[C@H](C)[C@H]1NC(=O)[C@@H](N)[C@@H](C)OC(=O)[C@H](Cc2ccc(OC)cc2)N(C)C(=O)[C@@H]2CCCN2C(=O)[C@H](CC(C)C)NC(=O)[C@@H](C)C(=O)[C@H](C(C)C)OC(=O)C[C@@H]1O (H-T[X35]LP[NMeY](Me); ester 1-C)	BT-549 breast	µM	45.9
O=C(Nc1ccncc1)C(=O)c1cn(S(=O)(=O)c2cccc(Cl)c2)c2ccccc12	BT-549 breast	µM	38.3
CC(=Nc1ccc(N(C)C)cc1)c1ccccc1	BT-549 breast	µM	33.2

[ask] Given the compound Nc1[nH]nc2nc(-c3cc(Cl)ccc3Cl)cc(-c3ccc(F)cc3)c12 , write its reported TGI.
[reply] 31.3

[ask] Given the compound C[N+](C)(C)CC(=O)N/N=C(\Cc1nc2ccc([N+](=O)[O-])cc2[nH]c1=O)C(=O)Nc1nc2ccc([N+](=O)[O-])cc2s1 , write its reported TGI.
[reply] 94.3

[ask] Given the compound Cc1nc2sc(C(=O)Nc3cccc(Br)c3C)c(N)c2cc1C(O)c1ccccc1 (configuration not stated) , write its reported TGI.
[reply] 2.93

---

tested on: SF-295 CNS; experiment: NCI tumour cell line growth inhibition, 48 h
assayEndpoint: TGI

Solved entries:
molecule	observedValue
CCOC(=O)C1=C(C)NC(=O)NC1c1ccc(OC)cc1OC (stereo not drawn)	> 100 µM
COCn1cc(C2=C(C)C(=O)C(C)=C(C)C2=O)cn1	> 100 µM
Brc1ccccc2cc(-c3ccccc3)nc1-2	48.9 µM
COC(=O)[C@@H]1C[C@@H](O)CN1C(=O)c1ccc([N+](=O)[O-])cc1[N+](=O)[O-]	> 100 µM
C=C1CC[C@@H]2C13[C@@H]1[C@H](CC(=O)[C@@]23C)C1(C)C (stereo partly drawn)	> 100 µM
CCOC(=O)C1=C(C)N(c2ccc(Cl)cc2)C2(O)C=CC(=O)C3=C(O)c4ccccc4C(=O)C312 (stereo not drawn)	22.4 µM
c1ccc2sc(SSSc3nc4ccccc4s3)nc2c1	> 100 µM

Now take the following molecule into account.
[ask] Given the molecule Cc1ccc(S(=O)(=O)OCOS(=O)(=O)c2ccc(C)cc2)cc1 , write its reported TGI.
[reply] > 100 µM
